experimentalTarget: T1, human SIRPβ1 extracellular domain + His-tag (NP_006056.2) (human, UniProt O00241 30-371)
T1 construct: also called hSIRPβ1; HuSIRPβ1
T1 sequence (O00241 other isoform, or with tags, fused parts or gaps): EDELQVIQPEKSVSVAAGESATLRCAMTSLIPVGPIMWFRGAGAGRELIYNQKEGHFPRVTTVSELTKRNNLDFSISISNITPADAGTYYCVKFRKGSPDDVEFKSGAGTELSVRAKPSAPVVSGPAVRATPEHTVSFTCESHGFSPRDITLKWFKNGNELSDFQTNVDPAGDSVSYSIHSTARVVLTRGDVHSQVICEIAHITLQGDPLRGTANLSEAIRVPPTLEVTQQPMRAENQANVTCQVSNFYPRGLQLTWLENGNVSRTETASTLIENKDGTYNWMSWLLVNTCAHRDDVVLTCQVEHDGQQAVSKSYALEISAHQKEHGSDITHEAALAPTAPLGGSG
assay: SPR, Ab captured, ECD-His analyte
Give measured pKd for each item. Keep answers brief.
Answers are plain numbers, as −log10 of the molar value.

binder	quantity	reportedValue
Antibody E5 (antibody, human IgG1, kappa, L234A L235A, V domains shown) VH: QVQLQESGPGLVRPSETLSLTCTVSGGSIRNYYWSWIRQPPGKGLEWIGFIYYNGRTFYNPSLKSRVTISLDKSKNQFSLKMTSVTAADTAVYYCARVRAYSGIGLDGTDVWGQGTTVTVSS VL: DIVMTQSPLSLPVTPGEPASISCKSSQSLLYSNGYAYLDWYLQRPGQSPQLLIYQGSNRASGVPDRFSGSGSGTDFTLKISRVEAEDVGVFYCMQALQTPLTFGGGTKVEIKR	pKd	5.86
Antibody E7 (antibody, human IgG1, kappa, L234A L235A, V domains shown) VH: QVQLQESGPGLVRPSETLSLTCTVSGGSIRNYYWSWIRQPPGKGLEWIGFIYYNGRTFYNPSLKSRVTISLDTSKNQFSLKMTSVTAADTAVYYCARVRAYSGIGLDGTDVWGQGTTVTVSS VL: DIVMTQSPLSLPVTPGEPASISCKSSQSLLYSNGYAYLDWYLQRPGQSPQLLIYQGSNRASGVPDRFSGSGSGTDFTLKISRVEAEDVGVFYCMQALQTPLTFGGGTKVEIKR	pKd	6.06
Antibody E19 (antibody, human IgG1, kappa, L234A L235A, V domains shown) VH: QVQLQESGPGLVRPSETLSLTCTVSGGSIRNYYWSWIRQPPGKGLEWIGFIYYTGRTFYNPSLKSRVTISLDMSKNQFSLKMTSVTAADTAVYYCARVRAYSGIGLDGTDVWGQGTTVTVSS VL: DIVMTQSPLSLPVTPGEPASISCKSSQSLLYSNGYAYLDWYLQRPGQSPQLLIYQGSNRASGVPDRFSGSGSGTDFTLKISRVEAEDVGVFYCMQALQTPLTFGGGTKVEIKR	pKd	5.78

Next up:
## Input // lookup pKd for Antibody E8 (antibody, human IgG1, kappa, L234A L235A, V domains shown) VH: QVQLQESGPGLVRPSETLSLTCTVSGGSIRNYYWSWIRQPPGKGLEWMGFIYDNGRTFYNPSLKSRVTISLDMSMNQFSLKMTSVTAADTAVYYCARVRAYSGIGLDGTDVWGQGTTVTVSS VL: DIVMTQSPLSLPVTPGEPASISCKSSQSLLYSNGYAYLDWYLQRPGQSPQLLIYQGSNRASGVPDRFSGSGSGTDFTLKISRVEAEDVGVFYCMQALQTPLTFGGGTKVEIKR
## Output 5.62
